Sourced from PubChem BioAssay (NCI)

Tested on: HS 578T breast
ASSAY EXPLANATION: NCI tumour cell line growth inhibition, 48 h; in the data active = GI50 below about 0.43 µM; inactive = the rest
Classes used: t for active, f for inactive

{"columns": ["MOLECULE", "QUALITATIVE LABEL"],
 "data": [
  ["CC(=O)CC(=O)Nn1c(-c2cccs2)nc2ccc(I)cc2c1=O", "f"],
  ["COc1cc2c(cc1Nc1nc(Nc3ccsc3C(N)=O)c3cc[nH]c3n1)N(C(=O)CN(C)C)CCC2", "f"],
  ["Nc1cc(N)c2nc(-c3ccccc3)c(Sc3ccc(F)cc3)nc2c1", "f"],
  ["CCS(=O)(=O)Nc1ccc(Oc2ccc(F)cc2F)c(-c2cn(C)c(=O)c3[nH]ccc23)c1", "t"],
  ["COc1ccc(C(=O)CC(Cl)=C(Cl)Cl)cc1", "f"],
  ["COc1c(C)cnc(Cn2cnc3c(Cl)nc(N)nc32)c1C", "f"],
  ["COc1ccc(C2CC(c3cccc(Nc4ccnc5cc(Cl)ccc45)c3)=NN2c2ccc(Cl)cc2)cc1 (stereo not given)", "f"],
  ["O=C1/C(=C/c2ccc([N+](=O)[O-])s2)Oc2ccc(Cl)cc21", "t"],
  ["Cn1c([N+](=O)[O-])cnc1/C=C1\\Oc2ccc(Cl)cc2C1=O", "f"],
  ["C=C1C(=O)O[C@H]2[C@H]1CC/C(Cn1cc(CNC(=O)c3cc4ccccc4[nH]3)nn1)=C\\CC[C@@]1(C)O[C@@H]21", "f"]
]}

###

System: SNB-75 CNS
ASSAY EXPLANATION: NCI tumour cell line growth inhibition, 48 h
REPORTED METRIC: TGI

{"columns": ["COMPOUND", "STUDY SYSTEM", "REPORTED METRIC", "ASSAY RESULT"],
 "data": [
  ["CCN(CC)CC(C(=O)Nc1c(C)cccc1C)/C(C)=N/NC(N)=S (configuration not stated)", "SNB-75 CNS", "TGI", "> 100 µM"],
  ["Cn1cnc2nc(Cl)nc(Cl)c21", "SNB-75 CNS", "TGI", "13.4 µM"],
  ["CC(=O)/C=C\\C(=O)NNS(=O)(=O)c1ccc(C)cc1", "SNB-75 CNS", "TGI", "> 100 µM"],
  ["COc1cc(C=Nc2ccc(Oc3ccc(Cl)cc3)c(Cl)c2)cc(OC)c1OC", "SNB-75 CNS", "TGI", "57.9 µM"],
  ["O=C1c2ccccc2CC1C1(O)C(=O)Nc2c(Cl)cc(Cl)cc21 (configuration not stated)", "SNB-75 CNS", "TGI", "> 100 µM"],
  ["Fc1ccccc1N=c1oc2ccc(Br)cc2cc1-c1nc2ccccc2[nH]1", "SNB-75 CNS", "TGI", "4.74 µM"],
  ["CC(C)NC(=O)OCc1c(COC(=O)NC(C)C)c(-c2ccc[n+](COC(=O)C3CCCCC3)c2)n2c1CCC2", "SNB-75 CNS", "TGI", "> 100 µM"],
  ["COc1cc2c(oc(=O)c3c4oc([Si](C)(C)C)cc4cc(OC)c23)c2cccc(O)c12", "SNB-75 CNS", "TGI", "> 100 µM"],
  ["NC(N)=NS(=O)(=O)c1ccc(NC(=O)c2c3ccccc3nc3ccccc23)cc1", "SNB-75 CNS", "TGI", "> 100 µM"],
  ["Cc1cc(N2CCOCC2)nc(N(CCNc2ccnc3cc(Cl)ccc23)Cc2cccs2)n1", "SNB-75 CNS", "TGI", "5.25 µM"],
  ["CCN1CCc2sc3[nH]c(=S)n(C)c(=O)c3c2C1", "SNB-75 CNS", "TGI", "> 100 µM"],
  ["COc1cc(OC)cc(N(C)Cc2cnc3nc(N)nc(N)c3c2C)c1", "SNB-75 CNS", "TGI", "> 100 µM"],
  ["CC(=O)NC(Cc1ccccc1)C(=S)N1CCCC1 (configuration not stated)", "SNB-75 CNS", "TGI", "> 100 µM"],
  ["CN(C)c1ccc(/C=C/C(=O)c2ccc(Nc3nc(Nc4ccc(F)cc4)nc(Nc4ccc(Cl)cc4)n3)cc2)cc1", "SNB-75 CNS", "TGI", "38.9 µM"],
  ["S=C(N/N=C/c1ccccc1)NC1CC(c2ccccc2)Oc2ccccc21 (configuration not stated)", "SNB-75 CNS", "TGI", "31.3 µM"],
  ["COc1cccc(C(=O)C(O)c2cccc(OC)c2OC)c1OC (configuration not stated)", "SNB-75 CNS", "TGI", "> 100 µM"],
  ["CCCCc1ccc(C(N)=O)nc1", "SNB-75 CNS", "TGI", "> 100 µM"],
  ["O=C(NC(c1ccccc1)C(O)C(=O)OCc1ccc2c(c1)C(=O)c1ccccc1C2=O)c1ccccc1 (configuration not stated)", "SNB-75 CNS", "TGI", "24.6 µM"],
  ["CCCC1C2=C(C(=O)OC2=O)C2C(CC)CC3=C(C(=O)OC3=O)C12 (configuration not stated)", "SNB-75 CNS", "TGI", "> 100 µM"],
  ["O=S(=O)(CC#CCS(=O)(=O)c1ccccc1)c1ccccc1", "SNB-75 CNS", "TGI", "5.55 µM"],
  ["COc1ccc(-c2nccn2-c2cc(OC)c(OC)c(OC)c2)cc1", "SNB-75 CNS", "TGI", "> 76.3 µM"],
  ["Cc1nc2c(=O)n(C)c(=O)nc-2n(-c2ccc(Cl)cc2)c1C", "SNB-75 CNS", "TGI", "> 100 µM"]
]}

###

System: DU-145 prostate
ASSAY EXPLANATION: NCI tumour cell line growth inhibition, 48 h; in the data active = GI50 below about 0.43 µM; inactive = the rest
Classes used: active, inactive

{"columns": ["COMPOUND", "QUALITATIVE LABEL"],
 "data": [
  ["CNCc1ccc(C)c(NC(=O)c2ccc(Nc3nc(-c4ccccc4)c4ccccc4n3)cc2)c1", "inactive"],
  ["COc1ccc(/C(C)=C(\\c2ccc(Cl)cc2)c2ccc(OCCN3CCCCC3)cc2)cc1F", "inactive"],
  ["CCOC(=O)c1ccccc1NC(c1ccccc1)c1ccc2cccnc2c1O (centres undefined)", "inactive"],
  ["C[As](C)SCC(COC(=O)c1ccccc1)OC(=O)c1ccccc1 (centres undefined)", "inactive"],
  ["COc1ccc(C2CC(c3cccc(Nc4ccnc5cc(Cl)ccc45)c3)=NN2c2ccc(Cl)cc2)cc1 (centres undefined)", "inactive"],
  ["C=CC(=O)N1CC[C@@H](Oc2nc(Nc3ccc(N4CCC(N5CCN(C)CC5)CC4)cc3)c(C(N)=O)nc2CC)C1", "inactive"],
  ["COc1c(C)cnc(Cn2cnc3c(Cl)nc(N)nc32)c1C", "active"],
  ["N#CC1=C(N)Oc2c(ccc3ccccc23)C1c1ccccc1Cl (centres undefined)", "inactive"],
  ["O=C(/C=C\\c1ccc(Cl)c(Cl)c1)c1ccccc1", "inactive"]
]}

###

Collected TGI values appear next to each entry.
System: OVCAR-4 ovarian
ASSAY EXPLANATION: NCI tumour cell line growth inhibition, 48 h
REPORTED METRIC: TGI

{"columns": ["MOLECULE", "REPORTED METRIC", "ASSAY RESULT"],
 "data": [
  ["O=C1c2cccc3cc4ccccc4c(c23)C(=O)N1CCCNCCNCCCN1C(=O)c2cccc3cc4ccccc4c(c23)C1=O", "TGI", "1.58 µM"],
  ["COc1c(C)cnc(Cn2cnc3c(Cl)nc(N)nc32)c1C", "TGI", "> 100 µM"],
  ["CC(=O)OC12CCCCC1C1(CCCC1)NC2=O (stereo unspecified)", "TGI", "> 100 µM"],
  ["Cc1nc2c(=O)n(C)c(=O)nc-2n(-c2ccc(Cl)cc2)c1C", "TGI", "84.4 µM"],
  ["COc1ccc(N2CCN(CC(=O)N3CCN(c4nnc(-c5ccc(Cl)cc5)c(-c5ccc(Cl)cc5)n4)CC3)CC2)cc1", "TGI", "> 100 µM"],
  ["CC(C)(C)C(=O)Cc1cc2c(cc1C(=O)O)S(=O)(=O)NC(C(C)(C)C)=C2", "TGI", "> 100 µM"]
]}

###

Tested on: HL-60(TB) leukemia
ASSAY EXPLANATION: NCI tumour cell line growth inhibition, 48 h
Listed molecules paired with reported TGI

{"columns": ["MOLECULE", "STUDY SYSTEM", "PREFIX OPERATOR", "TGI / µM"],
 "data": [
  ["Clc1ccc(CCn2ccc3ccccc32)c(Cl)c1", "HL-60(TB) leukemia", ">", 100],
  ["COc1cc2c(c(OC)c1OC)-c1c(c3ccc([N+](=O)[O-])cc3c(=O)n1CCCN=[N+]=[N-])C2=O", "HL-60(TB) leukemia", ">", 100],
  ["CC/C(=C(\\c1ccccc1)c1ccc(OCC[N+](C)(C)C)cc1)c1ccccc1", "HL-60(TB) leukemia", "=", 6.13],
  ["CCCCCCCCCCCCCCCCCc1nc(C#N)c(N)o1", "HL-60(TB) leukemia", "=", 69.6],
  ["CCOc1ccccc1Nc1nc(C)c(C(=O)CC(=O)C(=O)Nc2ccccc2)s1", "HL-60(TB) leukemia", "=", 58.1],
  ["Cc1nn(-c2ccccc2)c2ncc3c(c12)C(=O)N(Cc1ccccc1)C3=O", "HL-60(TB) leukemia", ">", 100],
  ["O=C1c2ccccc2C(=O)c2c1c1cc(O)ccc1n2Cc1ccc(Cl)cc1Cl", "HL-60(TB) leukemia", ">", 100],
  ["COC(=O)c1c(OC(=O)c2ccccc2)noc1CC(=O)OC1C=CCCC1 (configuration not stated)", "HL-60(TB) leukemia", ">", 100],
  ["O=C(N/N=C/c1cc(-c2ccccc2Cl)c(-c2ccccc2Cl)o1)c1ccncc1", "HL-60(TB) leukemia", ">", 100],
  ["CC1CCCC2(O1)OC1CC(=O)OC1C1=C2C(=O)c2ccccc2C1=O (configuration not stated)", "HL-60(TB) leukemia", "=", 3.48],
  ["Cn1cnc2nc(Cl)nc(Cl)c21", "HL-60(TB) leukemia", "=", 8.08],
  ["COC(=O)C1(C(=O)OC)CC2=C(S(=O)(=O)c3ccccc3)C[C@@H](C#N)[C@H]2C1", "HL-60(TB) leukemia", ">", 100],
  ["Clc1ccc(CCN2CCN(CCCc3ccccc3)CC2)cc1Cl", "HL-60(TB) leukemia", "=", 44.7],
  ["COc1nc(NC2OCC(OC(C)=O)C(OC(C)=O)C2OC(C)=O)c(N=C(C)C(C)=O)c(=O)n1C (configuration not stated)", "HL-60(TB) leukemia", ">", 100],
  ["CCN(CC)CC(C(=O)Nc1c(C)cccc1C)/C(C)=N/NC(N)=S (configuration not stated)", "HL-60(TB) leukemia", ">", 100],
  ["N#Cc1ccc(NC(=NCC(=O)O)Nc2ccc3ccccc3c2)cc1", "HL-60(TB) leukemia", ">", 10],
  ["CCN1CCc2sc3[nH]c(=S)n(C)c(=O)c3c2C1", "HL-60(TB) leukemia", "=", 1.83],
  ["N#Cc1ccc(/C=C2\\Cc3ccccc3C2=O)cc1", "HL-60(TB) leukemia", ">", 100],
  ["C[As](C)SCC(COC(=O)c1ccccc1)OC(=O)c1ccccc1 (configuration not stated)", "HL-60(TB) leukemia", "=", 0.1],
  ["CC1=CC(=O)C[C@]2(C)[C@@H](O)CC(C(C)CO)C[C@@H]12 (some centres not stated)", "HL-60(TB) leukemia", ">", 100],
  ["C=CCn1c(=O)c(-c2ccccc2)c(O)c2ccccc21", "HL-60(TB) leukemia", ">", 100],
  ["O=C1c2ccccc2CC1C1(O)C(=O)Nc2c(Cl)cc(Cl)cc21 (configuration not stated)", "HL-60(TB) leukemia", "=", 96.4]
]}
